- Measurement notes: antimalarial activity against Dd2 strain (AID 2302);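 further: 0% = DMSO untreated growth and 100% = chloroquine plus artemisinin killed control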
- Condition summary: P. falciparum Dd2 in RBCs, LDH growth readout, 72 h; at 2 µM
Active and inactive are the calls of the source.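 How the source made its calls: active means growth inhibition above 50% at the single 2 µM test dose, taken to imply half-maximal potency below 2 µM; inactive means the rest.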
Hello, when you answer, please use one of the following outcomes: 1.0 (active), 0.0 (inactive)

>>> print(df.to_string())
                                   compound  qualitative_label
0  COc1ccc(-c2cccc(NC(=O)c3ccc(Cl)cc3)c2)cc1CN1CCNCC1                0.0
1  N#Cc1cccc(CN(Cc2ccc(Cl)c(Cl)c2)S(=O)(=O)c2cccc([N+](=O)[O-])c2)c1                1.0
2  Fc1ccc2nc(-c3ccc(-c4ccc(CNCCN5CCNCC5)cc4)cc3)[nH]c2c1                1.0
3  Cc1cccn2c(=O)c3cc(C(=O)NCCN4CCOCC4)c(=N)n(CCc4ccccc4)c3nc12                1.0
4  CC(C)(C)CC(C)(C)c1ccc(O)c(C(=O)Nc2cccc([N+](=O)[O-])c2)c1                1.0

For N#Cc1ccc(CN2CCCN(c3ccc(NC(=O)c4ccc(F)cc4)cc3)CC2)cc1 , what call appears in the results of this test?
1.0

For COc1ccc(CN2CCC(CNCCc3ccccc3Oc3ccccc3)CC2)cc1 , what call appears in the results of this test?
1.0

###

- Measurement notes: human hepatoma cell viability loss – ATP luminescence, cytotoxicity control for P. falciparum antimalarial project, primary screen (AID 2303);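 further: 0% = DMSO wells and 100% = digitonin-killed cells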
- Condition summary: HepG2 viability, 24-48 h, at 10 µM
The source made the active and inactive calls.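 The calls were made as follows: active = inhibition above 50%; inactive = the rest.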
Hello, when you answer, please use one of the following outcomes: 1 (yes) (active), 0 (no) (inactive)

For COc1ccc2nccc([C@@H](O)CN3CCC(NCCc4c[nH]c5ccccc45)CC3)c2c1 , what call appears in the results of this test?
0 (no)

###

- Measurement notes: inhibition of 3D7 malaria parasite growth – strain 3D7 (AID 2306);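 further: 0% = DMSO wells and 100% = chloroquine plus artemisinin control wells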
- Condition summary: P. falciparum 3D7 erythrocytic growth, LDH absorbance, 72 h; at 2 µM; active compounds read high
Assay readout: growth inhibition (%)
Report the value in % with no unit label.

Example cases with answers are listed next.
>>> print(df.to_string())
                                chem_smiles  unit_descriptor  recorded_number
0  Nc1ccc(-c2cnc3[nH]cc(-c4ccc(C(=O)O)cc4)c3c2)cn1                %               97
1  O=C(Nc1ccc(-c2nc3ccccc3[nH]2)cc1)c1cnc(Cl)c(Cl)c1                %              102
2  Cc1cccc2[nH]c(-c3cccc(-c4ccc(NC(=O)Cc5cnc[nH]5)cc4)c3)nc12                %              101

With those in mind, consider the next compound.
Lab book: growth inhibition of O=C(Cc1cnc[nH]1)Nc1cccc(-c2ccc(-c3nc4ccccc4[nH]3)cc2)c1 noted as 99

###

- Measurement notes: antimalarial activity against Dd2 strain (AID 2302);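 further: 0% = DMSO untreated growth and 100% = chloroquine plus artemisinin killed control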
- Condition summary: P. falciparum Dd2 in RBCs, LDH growth readout, 72 h; at 2 µM
Calls of active or inactive are those of the source.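 How the source made its calls: active means growth inhibition above 50% at the single 2 µM test dose, taken to imply half-maximal potency below 2 µM; inactive means the rest.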
Hello, when you answer, please use one of the following outcomes: 1 = active, -1 = inactive

These recorded examples may help you get a feel for the data.
>>> print(df.to_string())
                                   compound  qualitative_label
0  NCc1cccc(-c2ccc(CNC3CCN(Cc4ccccc4)CC3)cc2)c1                 -1
1  COc1ccc(N2CCN(CCCCNC(=O)c3ccc(NC(=O)c4cc(C(F)(F)F)cc(C(F)(F)F)c4)cc3)CC2)c(OC)c1                  1

For Fc1ccc2nc(-c3cccc(-c4ccc(CNCC5CCCO5)cc4)c3)[nH]c2c1 (stereo not given) , what call appears in the results of this test?
1

For COc1ccccc1C1CCN(C2CCC(NC(=O)/C=C/c3ccc4c(c3)OC(F)(F)O4)CC2)CC1 (stereo not given) , what call appears in the results of this test?
-1

For O=C(/C=C/c1cccc(Cl)c1)N1CCC(C(O)CN2CCC3(CC2)CN(C(=O)/C=C/c2cccc(Cl)c2)c2ccccc23)CC1 (stereo not given) , what call appears in the results of this test?
-1

For Fc1ccc2nc(-c3cccc(-c4cccc(CNCC5CCCO5)c4)c3)[nH]c2c1 (stereo not given) , what call appears in the results of this test?
1

For CCN1CCN(CCCNc2c3ccccc3nc3ccccc23)CC1 , what call appears in the results of this test?
-1

For O=C(N[C@H]1CCN(Cc2ccc(OC3CCN(Cc4ccccc4)CC3)c(Cl)c2)C1)c1ccc(Cl)c(Cl)c1 , what call appears in the results of this test?
-1

For O=C(N[C@@H](Cc1ccccc1)C(=O)NC1CCCCC1)c1ccc(O)c(-c2cccc(C(F)(F)F)c2)c1 , what call appears in the results of this test?
-1

For COc1ccc(-c2ccc(NC(=O)c3cccc(Cl)c3)c(F)c2)cc1CN1CCCN(C)CC1 , what call appears in the results of this test?
-1

###

Recorded inhibition values for a group of molecules are listed next.
- Target or system: L-lactate dehydrogenase (Plasmodium falciparum (isolate CDC / Honduras))
- Measurement notes: PfLDH activity inhibition – cell lysate, 3D7 strain, counter-screen for P. falciparum growth inhibition project (AID 2304);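 further: 0% = vehicle and 100% = reference inhibitor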
- Condition summary: P. falciparum 3D7 crude extract, LDH APAD/NBT absorbance; at 2 µM; active compounds read high
Report the value in % with no unit label.

Lab book: inhibition of CC[C@H](C)CNC(=O)c1cncc(-c2cccc(CNCCCc3ccccc3)c2)c1 noted as 1

Lab book: inhibition of CCCN(CCC)C(=O)c1cc(C(=O)N[C@@H](Cc2ccccc2)[C@H](O)CNCc2cccc(C(F)(F)F)c2)cc(N2CCCCS2(=O)=O)c1 noted as 3

Lab book: inhibition of Cn1cc(CN2CCCC(COC(c3ccc(F)cc3)c3ccc(F)cc3)C2)cn1 (configuration not stated) noted as 4

###

Recorded growth inhibition values for a group of molecules are listed next.
- Measurement notes: antimalarial activity against Dd2 strain (AID 2302);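 further: 0% = DMSO untreated growth and 100% = chloroquine plus artemisinin killed control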
- Condition summary: P. falciparum Dd2 in RBCs, LDH growth readout, 72 h; at 2 µM; active compounds read high
The source made the active and inactive calls.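 The calls were made as follows: active = growth inhibition above 50% at the single 2 µM test dose, taken to imply half-maximal potency below 2 µM; inactive = the rest.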

Example cases with answers are listed next.
>>> df
                                chem_smiles        result
0  Cc1cc(=O)c(-c2ccc(Sc3ccc(Cl)cc3)cc2)c(C)[nH]1  84% (active)
1  Cc1cc2nc(/N=C(\N)NC(=O)NC3CCCCC3)nc(C)c2cc1C  98% (active)
2  CN1CCC(C(=O)N(Cc2ccc(-c3ccc(CNCCc4ccc(S(C)(=O)=O)cc4)cn3)cc2)Cc2cccc(F)c2)CC1  90% (active)

With those in mind, consider the next molecule.
Lab book: growth inhibition of Cc1cc(NN=Cc2cccc(Cl)c2)c2ccc(F)cc2n1 noted as 98% (active)

###

Recorded growth inhibition values for a group of compounds are listed next.
- Measurement notes: inhibition of 3D7 malaria parasite growth – strain 3D7 (AID 2306);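 further: 0% = DMSO wells and 100% = chloroquine plus artemisinin control wells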
- Condition summary: P. falciparum 3D7 erythrocytic growth, LDH absorbance, 72 h; at 2 µM; active compounds read high
Report the value in % with no unit label.

Lab book: growth inhibition of NC(=O)c1cnc2cc(-c3ccncc3)cc(Nc3ccc(NC(=O)C4CCCCC4)cc3)c2c1 noted as 98

Lab book: growth inhibition of Clc1ccc(OCCC2CCN(CCCCCCN3CCCCC3)CC2)cc1Cl noted as 97

Lab book: growth inhibition of CC(=O)Nc1ccc(C(=O)Nc2ccc(-c3cccc(-c4nc5ccccc5[nH]4)c3)cc2)cn1 noted as 99

Lab book: growth inhibition of O=C(Nc1ccc(C(F)(F)F)cc1)NC1CCN(c2ccnc3cc(Cl)ccc23)CC1 noted as 102

Lab book: growth inhibition of OC(CNCCCCCCNCC(O)c1ccc(Cl)c(Cl)c1)c1ccc(Cl)c(Cl)c1 (stereo not given) noted as 90

Lab book: growth inhibition of Cc1cccc2[nH]c(-c3cccc(-c4cccc(NC(=O)CNc5ccc(C(N)=O)cc5)c4)c3)nc12 noted as 100

Lab book: growth inhibition of Nc1c2c(nc3ccc(NC(=O)Cc4ccccc4)cc13)CCCC2 noted as 101

Lab book: growth inhibition of Cc1ccc2cc(NCCCCCCCCON3C(N)=NC(N)=NC34CCCCC4)ccc2n1 noted as 92

Lab book: growth inhibition of CN(C)S(=O)(=O)c1ccc(C(=O)N(c2nc(-c3ccccc3)cs2)C2CCCCC2)cc1 noted as 98

Lab book: growth inhibition of Cc1ccc(-c2nc3ccccc3o2)cc1NCc1cc(Cc2ccccc2)ccc1O noted as 82

Lab book: growth inhibition of CC(C)n1c(C2CCN(CC3CCN(C(=O)/C=C/c4ccc(Cl)c(Cl)c4)CC3)CC2)nc2ccccc21 noted as 94

Lab book: growth inhibition of CCCc1cc(Cc2cnc(N)nc2N)cc(CCC)c1OCCCC(=O)OCC noted as 94

Lab book: growth inhibition of CC(C)(C)CCN1CCC(CNC(=O)c2cc(-c3cccc(Cl)c3)cs2)C1 (stereo not given) noted as 99

Lab book: growth inhibition of CC(C)c1ccc(CN2CCC(CNC(=O)c3cc(-c4cccc(Cl)c4)cs3)C2)cc1 (stereo not given) noted as 99

Lab book: growth inhibition of COc1cc(NC(=O)N2CCc3ccc(OCCN4CCCCC4)cc32)cc(C(F)(F)F)c1 noted as 101

Lab book: growth inhibition of CCCCCCN1CCC(CNCc2cccc(Cl)c2)CC1 noted as 85

Lab book: growth inhibition of CN1CCN(c2ccnc3ccc(NC(=O)N(C)c4ccc(Cl)c(Cl)c4)cc23)CC1 noted as 100

Lab book: growth inhibition of COc1ccc2nccc([C@@H](O)CN3CCC(NC(=O)c4cccc(C(=O)c5ccccc5)c4)CC3)c2c1 noted as 99

Lab book: growth inhibition of COc1cc(C(=O)N2CC[C@@H](CCN3CCC4(CC3)CN(S(C)(=O)=O)c3ccccc34)C[C@H]2Cc2ccc(Cl)c(Cl)c2)cc(OC)c1OC noted as 101

Lab book: growth inhibition of Cc1noc(C)c1-c1cccc(CNCc2cccc(-c3cccc(-c4nc5ccccc5[nH]4)c3)c2)c1 noted as 102

Lab book: growth inhibition of CCCCn1c(Sc2ccc(C#N)c([N+](=O)[O-])c2)nnc1-c1cc(OC)cc(OC)c1 noted as 94
